Would you kindly list pEC50 for each of these molecules?
- target entity: STAT6 (Homo sapiens, UniProt P42226)
- Construct: stably transfected HaCaT keratinocyte cell line, which expresses NanoLuc luciferase reporter gene under the transcriptional control of the STAT6 responsive promoter; endogenous in cells; host or cells: HaCaT keratinocyte reporter cell line (stably transfected with a NanoLuc reporter)
- Sequence (P42226 1-847): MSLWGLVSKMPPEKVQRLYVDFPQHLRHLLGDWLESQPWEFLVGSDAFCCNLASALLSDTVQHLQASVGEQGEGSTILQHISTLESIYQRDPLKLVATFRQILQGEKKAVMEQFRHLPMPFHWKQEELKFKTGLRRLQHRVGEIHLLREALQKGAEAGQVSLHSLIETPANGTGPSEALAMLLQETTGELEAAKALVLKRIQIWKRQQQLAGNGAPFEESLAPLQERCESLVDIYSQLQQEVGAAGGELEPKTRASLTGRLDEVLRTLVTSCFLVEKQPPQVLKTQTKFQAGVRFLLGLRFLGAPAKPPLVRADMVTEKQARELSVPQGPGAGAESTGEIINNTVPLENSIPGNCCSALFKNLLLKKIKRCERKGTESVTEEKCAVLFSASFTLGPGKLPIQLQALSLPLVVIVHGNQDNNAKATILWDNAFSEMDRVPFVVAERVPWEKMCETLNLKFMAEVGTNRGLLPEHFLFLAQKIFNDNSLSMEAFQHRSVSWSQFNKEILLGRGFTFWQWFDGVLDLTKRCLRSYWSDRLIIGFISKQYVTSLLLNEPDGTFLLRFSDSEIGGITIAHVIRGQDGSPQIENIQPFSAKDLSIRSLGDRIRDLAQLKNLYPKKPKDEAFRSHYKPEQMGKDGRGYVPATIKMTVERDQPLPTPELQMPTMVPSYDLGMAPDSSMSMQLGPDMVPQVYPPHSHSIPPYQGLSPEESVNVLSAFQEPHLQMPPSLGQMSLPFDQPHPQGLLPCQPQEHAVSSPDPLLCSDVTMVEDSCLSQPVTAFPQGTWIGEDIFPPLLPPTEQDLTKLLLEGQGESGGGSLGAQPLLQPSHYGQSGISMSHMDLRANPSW
- protocol details: STAT6 Reporter Luciferase Assay (IL-13 stimulated HaCaT keratinocyte NanoLuc reporter cells)
- Assay type: cell-based
- condition details: IL-13 stimulated HaCaT STAT6 NanoLuc reporter cells; read-out: Reporter EC50
One number for each entry, as −log10 of the molar value.

Respectfully, I request pEC50 for each entry included below.
1. CC(C)n1nc(C(=O)NCc2ccc(NC(=O)N(C)C)cc2)c2c1CCN(c1ccc(C(=O)N3C[C@@H]4OC(=O)N[C@@H]4C3)cn1)C2 (racemic)
2. CC(C)n1nc(C(=O)NCc2ccc(NC(=O)C3CCN(C)CC3)c(F)c2)c2c1[C@@H](C)CN(c1ccc(C(=O)N(C)C)cn1)C2
3. CC(C)n1nc(C(=O)NCc2ccc(NC(=O)N(C)C)cc2)c2c1CCN(c1ccc(C(=O)N3CCn4nc(C#N)cc4C3)cn1)C2
4. CC(C)n1nc(C(=O)NCc2ccc(NC(=O)N3CCN4CCC[C@@H]4C3)c(F)c2)c2c1[C@@H](C)CN(c1ccc(C(=O)N(C)C)cn1)C2
5. CC(C)n1nc(C(=O)NCc2ccc(NC(=O)N(C)C)cc2)c2c1CCN(c1ccc(C(=O)N(C)C)cn1)[C@@H]2C (single isomer, unassigned)

Completion:
[5.85, 7.85, 7.25, 9.00, 8.70]

The molecule listed as CC(C)n1nc(C(=O)NCc2ccc(NC(=O)N3CCC4(CC3)CN(C)C4)c(F)c2)c2c1[C@@H](C)CN(c1ccc(C(=O)N(C)C)cc1)C2 shows pEC50 equal to 9.00

====

- target entity: STAT6 (Homo sapiens, UniProt P42226)
- Construct: stably transfected HaCaT keratinocyte cell line, which expresses NanoLuc luciferase reporter gene under the transcriptional control of the STAT6 responsive promoter; endogenous in cells; host or cells: HaCaT keratinocyte reporter cell line (stably transfected with a NanoLuc reporter)
- protocol details: STAT6 Reporter Luciferase Assay (IL-13 stimulated HaCaT keratinocyte NanoLuc reporter cells)
- Format: cell-based
- condition details: IL-13 stimulated HaCaT STAT6 NanoLuc reporter cells; read-out: Reporter EC50
measured metric: log10 of EC50 (log10 of the value in nM)
// do not treat as linear: log10 of EC50, unit nM

Respectfully, I request log10 of EC50 for each entry included below.
1. CCOC(=O)Nc1ccc(CNC(=O)c2nn(C(C)C)c3c2CN(c2ccc(C(=O)N(C)C)cn2)CC3)cc1 [Example 236]
2. CC(=O)NC1(C)CN(C(=O)c2ccc(N3CCc4c(c(C(=O)NCc5ccc(NC(=O)N(C)C)cc5)nn4C(C)C)C3)nc2)C1 [Example 330]
3. CC(C)n1nc(C(=O)NCc2ccc(NC(=O)N(C)C)cc2)c2c1CCN(c1ccc(C(=O)N3C[C@@H]4OC(=O)N(C)[C@@H]4C3)cn1)C2 (racemic) [Example 334]
4. COC[C@H]1CN(C(=O)Nc2ccc(CNC(=O)c3nn(C(C)C)c4c3CN(c3ccc(C(=O)N(C)C)cn3)C[C@@H]4C)cc2F)CCN1 [Example 688]
5. CC(C)n1nc(C(=O)NCc2ccc(NC(=O)N(C)C)cc2)c2c1[C@H](C)CN(c1ncc(C(=O)N(C)C)cn1)C2 (single isomer, unassigned) [Example 552]
6. CC(C)n1nc(C(=O)NCc2ccc(NC(=O)N(C)C)cc2)c2c1CCN(c1ncc(C(=O)N(C)C)cn1)[C@H]2C (single isomer, unassigned) [Example 509]
7. CC1CN(c2ccc(-c3nccn3C)cn2)Cc2c(C(=O)NCc3ccc(NC(=O)N(C)C)cc3)nn(C)c21 (single isomer, unassigned) [Example 204]
8. CC(C)n1nc(C(=O)NCc2ccc(NC(=O)N3CCN(C)CC3)cc2)c2c1[C@@H](C)CN(c1ccc(-c3ncnn3C3CC3)cn1)C2 [Example 649]

Completion:
1. 1.23
2. 3.30
3. 2.25
4. 0.00
5. 1.53
6. 3.52
7. 1.20
8. 0.00

Respectfully, I request log10 of EC50 for each entry included below.
1. CCn1nc(C(=O)NCc2ccc(NC(=O)N3CCN(C)CC3)cc2)c2c1C(C(F)(F)F)CN(c1ccc(C(=O)N(C)C)cn1)C2 (single isomer, unassigned) [Example 695]
2. CCNC(=O)CN(C)C(=O)c1ccc(N2CCc3c(c(C(=O)NCc4ccc(NC(=O)N(C)C)cc4)nn3C(C)C)C2)nc1 [Example 229]
3. CCOC1CN(C(=O)c2ccc(N3CCc4c(c(C(=O)NCc5ccc(NC(=O)N(C)C)cc5)nn4C(C)C)C3)nc2)C1 [Example 242]

Completion:
1: 1.51; 2: 2.77; 3: 2.55

Respectfully, I request log10 of EC50 for each entry included below.
1. CC(C)n1nc(C(=O)NCc2ccc(NC(=O)N(C)C)cc2)c2c1CCN(c1ccc(C(=O)N3CC4(CCC(=O)N4)C3)cn1)C2 [Example 298]
2. CCC1CN(c2ccc(C(=O)N(C)C)cn2)Cc2c(C(=O)NCc3ccc(NC(=O)N(C)C)cc3)nn(CC)c21 (single isomer, unassigned) [Example 313]
3. CC(C)n1nc(C(=O)NCc2ccc(NC(=O)N(C)C)cc2)c2c1C1(CC1)CN(c1ccc(C(=O)N(C)C)cn1)C2 [Example 266]
4. CC(C)n1nc(C(=O)NCc2ccc(NC(=O)N(C)C)cc2)c2c1[C@@H](C)CN(c1ncc(C(=O)NCc3ccc(NC(=O)N(C)C)cc3)cn1)C2 [Example 500]
5. CCn1nc(C(=O)NCc2ccc(NC(=O)N3CCN(C)CC3)cc2)c2c1[C@@H](C)CN(c1ccc(C(=O)N(C)C)cc1)C2 [Example 398]
6. CC(C)n1nc(C(=O)NCc2ccc(NC(=O)N3CC4CC4C3)cc2)c2c1CCN(c1ccc(C(=O)N(C)C)cn1)C2 (stereo not drawn) [Example 186]
7. CNC(=O)Nc1ccc(CNC(=O)c2nn(C(C)C)c3c2CN(c2ccc(N4CCCC4=O)cn2)C[C@@H]3C)cc1 [Example 480]
8. COCCC1(N)CCN(C(=O)Nc2ccc(CNC(=O)c3nn(C(C)C)c4c3CN(c3ccc(C(=O)N(C)C)cc3)C[C@@H]4C)cc2)CC1 [Example 708]

Completion:
[3.40, 0.00, 0.48, 1.04, -0.52, 1.00, -0.52, 0.00]

Respectfully, I request log10 of EC50 for each entry included below.
1. CC(=O)NC1CN(C(=O)c2ccc(N3CCc4c(c(C(=O)NCc5ccc(NC(=O)N(C)C)cc5)nn4C(C)C)C3)nc2)C1 [Example 292]
2. CC(C)n1nc(C(=O)NCc2ccc(NC(=O)N(C)C)cc2)c2c1C(O)CN(c1ccc(C(=O)N(C)C)cn1)C2 (single isomer, unassigned) [Example 474]
3. CC(C)n1nc(C(=O)NCc2ccc(NC(=O)N(C)C)cc2)c2c1CCN(c1ccc(C(=O)N3Cc4cnn(C)c4C3)cn1)C2 [Example 363]
4. CCc1nc(C(=O)NCc2ccc(NC(=O)N(C)C)cc2)c2n1C(C)CN(c1ccc(C(=O)N(C)C)cc1)C2 (racemic) [Example 399]

Completion:
3.00
1.60
0.85
0.30

The molecule listed as CC(C)n1nc(C(=O)NCc2ccc(NC(=O)N(C)C)cc2)c2c1CCN(c1ccc(C(=O)N3CCc4ccc(C#N)cc4C3)cn1)C2 [Example 422] shows log10 of EC50 equal to 1.28
